# Test system: ED cells (E. derm NBM-6, ATCC CCL-57)
# experiment_notes: cell viability (ATP, CellTiter-Glo) relative to untreated control (fraction of control); higher = less cytotoxic
# conditions: 10 µM; incubation time: 1h
observation_type: cell viability

{"entry_smiles": "CC(C)(C)NC(=O)[C@@H]1C[C@@H]2CCCC[C@@H]2CN1C[C@@H](O)[C@H](Cc1ccccc1)NC(=O)[C@H](CC(N)=O)NC(=O)c1ccc2ccccc2n1", "system_under_test": "ED cells (E. derm NBM-6, ATCC CCL-57)", "result": 1.03}
{"entry_smiles": "Nc1nc(NC2CC2)c2ncn([C@H]3C=C[C@@H](CO)C3)c2n1", "system_under_test": "ED cells (E. derm NBM-6, ATCC CCL-57)", "result": 1}
{"entry_smiles": "Nc1ccn([C@@H]2CS[C@H](CO)O2)c(=O)n1", "system_under_test": "ED cells (E. derm NBM-6, ATCC CCL-57)", "result": 1.03}
{"entry_smiles": "O=C(NCc1c(F)cc(F)cc1F)c1cn2c(c(O)c1=O)C(=O)N1[C@H]3CC[C@H](C3)O[C@@H]1C2", "system_under_test": "ED cells (E. derm NBM-6, ATCC CCL-57)", "result": 0.99}

----------
# Tested on: ED cells (E. derm NBM-6, ATCC CCL-57)
# experiment_notes: cell viability (ATP, CellTiter-Glo) relative to untreated control (fraction of control); higher = less cytotoxic
# conditions: 2 µM; incubation time: 24h
Where a name gives a salt, the structure may show the parent alone.

{"compound": "Cc1cc(C#N)cc(C)c1Oc1nc(Nc2ccc(C#N)cc2)nc(N)c1Br", "system_under_test": "ED cells (E. derm NBM-6, ATCC CCL-57)", "cell viability": 1.02}
{"compound": "Cc1cn([C@H]2C[C@H](N=[N+]=[N-])[C@@H](CO)O2)c(=O)[nH]c1=O", "system_under_test": "ED cells (E. derm NBM-6, ATCC CCL-57)", "cell viability": 1.05}
{"compound": "Cc1nnc(C(=O)NC(C)(C)c2nc(C(=O)NCc3ccc(F)cc3)c(O)c(=O)n2C)o1", "system_under_test": "ED cells (E. derm NBM-6, ATCC CCL-57)", "cell viability": 1.02}
{"compound": "CC(C)OC(=O)OCOP(=O)(CO[C@H](C)Cn1cnc2c(N)ncnc21)OCOC(=O)OC(C)C [tenofovir disoproxil fumarate]", "system_under_test": "ED cells (E. derm NBM-6, ATCC CCL-57)", "cell viability": 1.01}
{"compound": "CCC[C@@]1(CCc2ccccc2)CC(O)=C([C@H](CC)c2cccc(NS(=O)(=O)c3ccc(C(F)(F)F)cn3)c2)C(=O)O1", "system_under_test": "ED cells (E. derm NBM-6, ATCC CCL-57)", "cell viability": 0.993}
{"compound": "Nc1nc(=O)n([C@@H]2CS[C@H](CO)O2)cc1F", "system_under_test": "ED cells (E. derm NBM-6, ATCC CCL-57)", "cell viability": 1.02}
{"compound": "COC(=O)N[C@H](C(=O)N[C@@H](Cc1ccccc1)[C@@H](O)CN(Cc1ccc(-c2ccccn2)cc1)NC(=O)[C@@H](NC(=O)OC)C(C)(C)C)C(C)(C)C", "system_under_test": "ED cells (E. derm NBM-6, ATCC CCL-57)", "cell viability": 1.07}

----------
# Test system: ED cells (E. derm NBM-6, ATCC CCL-57)
# experiment_notes: cell viability (ATP, CellTiter-Glo) relative to untreated control (fraction of control); higher = less cytotoxic
# conditions: 50 µM; incubation time: 72h
Structures can show the parent of a compound that is named as a salt.
observation_type: cell viability

{"molecule": "COC(=O)N[C@H](C(=O)N[C@@H](Cc1ccccc1)[C@@H](O)CN(Cc1ccc(-c2ccccn2)cc1)NC(=O)[C@@H](NC(=O)OC)C(C)(C)C)C(C)(C)C [atazanavir]", "system_under_test": "ED cells (E. derm NBM-6, ATCC CCL-57)", "result_number": 1.09}
{"molecule": "Nc1nc(NC2CC2)c2ncn([C@H]3C=C[C@@H](CO)C3)c2n1 [abacavir]", "system_under_test": "ED cells (E. derm NBM-6, ATCC CCL-57)", "result_number": 0.846}
{"molecule": "CC(C)OC(=O)OCOP(=O)(CO[C@H](C)Cn1cnc2c(N)ncnc21)OCOC(=O)OC(C)C [tenofovir disoproxil fumarate]", "system_under_test": "ED cells (E. derm NBM-6, ATCC CCL-57)", "result_number": 0.708}
{"molecule": "Cc1nnc(C(=O)NC(C)(C)c2nc(C(=O)NCc3ccc(F)cc3)c(O)c(=O)n2C)o1 [raltegravir]", "system_under_test": "ED cells (E. derm NBM-6, ATCC CCL-57)", "result_number": 1.05}
{"molecule": "Nc1ccn([C@@H]2CS[C@H](CO)O2)c(=O)n1 [lamivudine]", "system_under_test": "ED cells (E. derm NBM-6, ATCC CCL-57)", "result_number": 1.04}

----------
# reported cell viability; entries follow
# System: ED cells (E. derm NBM-6, ATCC CCL-57)
# experiment_notes: cell viability (ATP, CellTiter-Glo) relative to untreated control (fraction of control); higher = less cytotoxic
# conditions: 0.5 µM; incubation time: 144h

{"entry_smiles": "Cc1nnc(C(=O)NC(C)(C)c2nc(C(=O)NCc3ccc(F)cc3)c(O)c(=O)n2C)o1", "cell viability": 0.994}
{"entry_smiles": "Cc1ccnc2c1NC(=O)c1cccnc1N2C1CC1", "cell viability": 1}
{"entry_smiles": "Cc1cc(C#N)cc(C)c1Oc1nc(Nc2ccc(C#N)cc2)nc(N)c1Br", "cell viability": 1}
{"entry_smiles": "Nc1ccn([C@@H]2CS[C@H](CO)O2)c(=O)n1", "cell viability": 1.03}
{"entry_smiles": "Nc1nc(=O)n([C@@H]2CS[C@H](CO)O2)cc1F", "cell viability": 1.03}
{"entry_smiles": "CC(C)c1nc(CN(C)C(=O)N[C@H](C(=O)N[C@@H](Cc2ccccc2)C[C@H](O)[C@H](Cc2ccccc2)NC(=O)OCc2cncs2)C(C)C)cs1", "cell viability": 1}
{"entry_smiles": "O=C1Nc2ccc(Cl)cc2[C@@](C#CC2CC2)(C(F)(F)F)O1", "cell viability": 1.02}
{"entry_smiles": "Nc1nc(NC2CC2)c2ncn([C@H]3C=C[C@@H](CO)C3)c2n1", "cell viability": 1.04}

----------
# reported cell viability; entries follow
# Test system: ED cells (E. derm NBM-6, ATCC CCL-57)
# experiment_notes: cell viability (ATP, CellTiter-Glo) relative to untreated control (fraction of control); higher = less cytotoxic
# conditions: 100 µM; incubation time: 72h

{"entry_smiles": "Cc1cn([C@H]2C[C@H](N=[N+]=[N-])[C@@H](CO)O2)c(=O)[nH]c1=O", "cell viability": 1.08}
{"entry_smiles": "Nc1ccn([C@@H]2CS[C@H](CO)O2)c(=O)n1", "cell viability": 1.04}
{"entry_smiles": "CCC[C@@]1(CCc2ccccc2)CC(O)=C([C@H](CC)c2cccc(NS(=O)(=O)c3ccc(C(F)(F)F)cn3)c2)C(=O)O1", "cell viability": 0.557}
{"entry_smiles": "CC(C)c1nc(CN(C)C(=O)N[C@H](C(=O)N[C@@H](Cc2ccccc2)C[C@H](O)[C@H](Cc2ccccc2)NC(=O)OCc2cncs2)C(C)C)cs1", "cell viability": 0.00652}

----------
# reported cell viability; entries follow
# Tested on: ED cells (E. derm NBM-6, ATCC CCL-57)
# experiment_notes: cell viability (ATP, CellTiter-Glo) relative to untreated control (fraction of control); higher = less cytotoxic
# conditions: 50 µM; incubation time: 72h

{"entry_smiles": "Cc1ccnc2c1NC(=O)c1cccnc1N2C1CC1", "cell viability": 1.06}
{"entry_smiles": "O=C1Nc2ccc(Cl)cc2[C@@](C#CC2CC2)(C(F)(F)F)O1", "cell viability": 0.659}
{"entry_smiles": "Nc1nc(=O)n([C@@H]2CS[C@H](CO)O2)cc1F", "cell viability": 1.04}
{"entry_smiles": "CCC[C@@]1(CCc2ccccc2)CC(O)=C([C@H](CC)c2cccc(NS(=O)(=O)c3ccc(C(F)(F)F)cn3)c2)C(=O)O1", "cell viability": 0.822}
{"entry_smiles": "Cc1cn([C@H]2C[C@H](N=[N+]=[N-])[C@@H](CO)O2)c(=O)[nH]c1=O", "cell viability": 1.09}

----------
# Tested on: ED cells (E. derm NBM-6, ATCC CCL-57)
# experiment_notes: cell viability (ATP, CellTiter-Glo) relative to untreated control (fraction of control); higher = less cytotoxic
# conditions: 20 µM; incubation time: 144h
Counter-ions that a name gives are not always drawn.
# reported cell viability; entries follow
observation_type: cell viability

{"compound": "O=C(NCc1c(F)cc(F)cc1F)c1cn2c(c(O)c1=O)C(=O)N1[C@H]3CC[C@H](C3)O[C@@H]1C2", "system_under_test": "ED cells (E. derm NBM-6, ATCC CCL-57)", "observation_type": "cell viability", "result_number": 1.01}
{"compound": "CC(C)OC(=O)OCOP(=O)(CO[C@H](C)Cn1cnc2c(N)ncnc21)OCOC(=O)OC(C)C [tenofovir disoproxil fumarate]", "system_under_test": "ED cells (E. derm NBM-6, ATCC CCL-57)", "observation_type": "cell viability", "result_number": 0.833}
{"compound": "CC(C)CN(C[C@@H](OP(=O)(O)O)[C@H](Cc1ccccc1)NC(=O)O[C@H]1CCOC1)S(=O)(=O)c1ccc(N)cc1", "system_under_test": "ED cells (E. derm NBM-6, ATCC CCL-57)", "observation_type": "cell viability", "result_number": 0.993}
{"compound": "Nc1ccn([C@@H]2CS[C@H](CO)O2)c(=O)n1", "system_under_test": "ED cells (E. derm NBM-6, ATCC CCL-57)", "observation_type": "cell viability", "result_number": 1.04}
{"compound": "CC(C)(C)NC(=O)[C@@H]1C[C@@H]2CCCC[C@@H]2CN1C[C@@H](O)[C@H](Cc1ccccc1)NC(=O)[C@H](CC(N)=O)NC(=O)c1ccc2ccccc2n1", "system_under_test": "ED cells (E. derm NBM-6, ATCC CCL-57)", "observation_type": "cell viability", "result_number": 0.808}
{"compound": "CCC[C@@]1(CCc2ccccc2)CC(O)=C([C@H](CC)c2cccc(NS(=O)(=O)c3ccc(C(F)(F)F)cn3)c2)C(=O)O1", "system_under_test": "ED cells (E. derm NBM-6, ATCC CCL-57)", "observation_type": "cell viability", "result_number": 0.973}
{"compound": "O=C1Nc2ccc(Cl)cc2[C@@](C#CC2CC2)(C(F)(F)F)O1", "system_under_test": "ED cells (E. derm NBM-6, ATCC CCL-57)", "observation_type": "cell viability", "result_number": 0.969}
{"compound": "COC(=O)N[C@H](C(=O)N[C@@H](Cc1ccccc1)[C@@H](O)CN(Cc1ccc(-c2ccccn2)cc1)NC(=O)[C@@H](NC(=O)OC)C(C)(C)C)C(C)(C)C", "system_under_test": "ED cells (E. derm NBM-6, ATCC CCL-57)", "observation_type": "cell viability", "result_number": 1.07}
